test system: L1210 leukemia ip in BDF1 mice, survival T/C; test: NCI In Vivo Anticancer Drug Screen. Data for tumor model L1210 Leukemia (intraperitoneal) in B6D2F1 (BDF1) mice; conditions: endpoint: mean survival time; dose: 100.0 mg/kg/injection; schedule: Q04DX003 (ip); vehicle: saline; higher = longer survival
Toxic doses and inconclusive results are not listed.
# Lookup of reported T/C keyed by entry

compound	T/C
CCOC(=O)C(C)(OCC)OCC	109 % of control
c1ccc2c(c1)CNCc1ccccc1-2	105 % of control
Nc1ncc(CBr)c(N)n1	97 % of control
c1ccc2c(c1)CNC2	104 % of control
Cc1cc(C)cc(-n2nnc3ccccc3c2=O)c1	91 % of control
CC(N)=O.CC(N)=O.Nc1ccnc(=O)[nH]1.[Cl][Pt]	114 % of control
CCN(Cc1ccccc1)c1nnnn1-c1ccccc1	96 % of control
CN(C)CCCC#N	97 % of control
CC(=O)c1c(C)cc(C(C)(C)C)cc1C	105 % of control
[Cl][Nd]([Cl])[Cl]	100 % of control
O=C(OCCN1CCCCC1)C(O)C1CCCCC1 (stereo not drawn)	101 % of control
O=c1[nH]c2ccsc2c(=O)n1O	102 % of control
CC(C)(SCc1ccccc1)C(N)C(=O)O (stereo not drawn)	105 % of control
CC(CO)NC(=O)C1C=C2c3cccc4[nH]cc(c34)CC2N(C)C1 (stereo not drawn)	100 % of control
[N-]=[N+]=NC(=O)C1(Br)CCC2c3ccccc3C([N+](=O)[O-])(C1)c1ccccc12 (stereo not drawn)	101 % of control
CC1(C)C(=O)C(C)(C)C1=NO	103 % of control
[N-]=[N+]=NCC(=O)NCc1cnccn1	102 % of control
CCOC(=O)C(C(C)=O)C(c1ccc(OCc2ccccc2)c(C)c1)C(C(C)=O)C(=O)OCC (stereo not drawn)	94 % of control
Cc1ccc(S(=O)(=O)O)cc1	102 % of control
O=c1cc(COc2ccc(O)cc2)[nH]c(=O)[nH]1	101 % of control
CCCCCC/C=C1/CCC/C1=N\NC(=O)c1ccc[n+](C)c1	100 % of control
C/C(=N/N(C)C)c1ccc(Cl)cc1	101 % of control
CN1CCC2(CC1)SSC1(CCN(C)CC1)S2	98 % of control
CN1CCC(OC(N)=O)CC1	103 % of control
BrC1C2C=CCC1CC2 (stereo not drawn)	96 % of control
Cc1n[nH]c(=S)n1C	108 % of control
CC(C)C1(C)NC(=O)NC1=O (stereo not drawn)	110 % of control
CCOc1ccccc1NC(=O)c1cc2ccccc2cc1O	98 % of control
CCCC1(CCC)CN(C)C1=O	98 % of control
CN(C)NC(=O)NCCCl	106 % of control
O=[N+]([O-])c1ccc(OCCCOc2ccc(S(=O)(=O)F)cc2)cc1	102 % of control
C1CC(=NN=C2CCSCC2)CCS1	96 % of control
NC(=O)NOCC(N)C(=O)O (stereo not drawn)	102 % of control
Cc1cc(Cl)c2cc(Cl)cc(Cl)c2n1	91 % of control
[Cl][Gd]([Cl])[Cl]	94 % of control
COC(=O)c1csc(-c2csc(CCN)n2)n1	95 % of control
O=C(c1ccccc1)C1(c2ccccc2)SSC1(C(=O)c1ccccc1)c1ccccc1 (stereo not drawn)	95 % of control
C=CCc1cn(C2CC(O)C(CO)O2)c(=O)[nH]c1=O (stereo not drawn)	106 % of control

Values were extracted from PubChem BioAssay AID248.
